biological target: PDZRN4_1, Q6ZMN7; experiment: holdup assay; design: key: below the threshold = too weak to quantify, mostly under pKd 3.1 to 4; conditions: plain residues with an end cap or a label only (N-terminal biotin on a linker: ado-ado)
Sequence (Q6ZMN7 213-318): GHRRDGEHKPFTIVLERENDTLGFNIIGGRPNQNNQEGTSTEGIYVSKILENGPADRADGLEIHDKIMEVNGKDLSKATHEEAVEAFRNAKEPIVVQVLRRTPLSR
Quantity Name: pKd

Consider the reported pKd for these binders:
1) DAAHHDESNC [FMNL3, Q8IVF7] | below the threshold
2) RGKNRRQSIF [CDK18, Q07002] | below the threshold
3) GNDPDRGTSI [GRID2, O43424] | 3.49
4) SKQFDKNAYV [CLDN10, P78369] | below the threshold
5) EAVTVESTSL [SLC22A11, Q9NSA0] | 4.43

Field request: pKd | item: LPPPESESKV [KCNJ9, Q92806]
below the threshold

Field request: pKd | item: NNMAFETTHF [SLC5A12, Q1EHB4]
below the threshold
